Measured values drawn from PubChem BioAssay (NCI) for this set.

test system: MDA-MB-468 breast; assay: NCI-60 one-dose screen, 48 h; settings: 10 µM unless noted
This is part of a sample that, as a whole, favours compounds with a hit. Of some 83,000 tested, about 20% had one in any assay. The source made the active and inactive calls. How the source made its calls: active means growth percent below 10; inactive means the rest.
The categories you may choose from are active, inactive

Recorded test call requested for Cc1ccc(S(=O)(=O)NCCCNc2cc(-c3cn(C(C)(C)C)nc3-c3cccc(O)c3)ccn2)cc1
inactive

Recorded test call requested for C=CCCC1(C)NC(=O)NC1=O (stereo not drawn)
inactive

Recorded test call requested for CCOC(=O)C1C(=O)C=C(c2ccc(OC)cc2)CC1c1sc(N(C)Cc2ccccc2)nc1Cl (stereo not drawn)
inactive

Recorded test call requested for COc1cc(/C=C2\C(=O)Nc3ccccc32)cc(OC)c1O
inactive

Recorded test call requested for CN1CCN(c2ccc(-c3cc4c(Nc5ccc(F)c(Cl)c5)ncnn4c3)cc2)CC1
active

Recorded test call requested for N=C(N)c1ccc(OCCSCCOc2ccc(C(=N)N)cc2)cc1
inactive

Recorded test call requested for C=C(CBr)[C@@H]1CC[C@]2(COC(C)=O)CC[C@]3(C)[C@H](CC[C@@H]4[C@@]5(C)CCCNC(C)(C)[C@@H]5CC[C@]43C)[C@@H]12
inactive

Recorded test call requested for CC/C=C\CCC/C=C1/C(=O)C=C[C@@H]1C/C=C\CCCC(=O)OC
inactive

Recorded test call requested for CC(C)(C)C(CCc1ccc(Cl)cc1)N1CCN(C2CCCCC2)CC1 (stereo not drawn)
inactive

Recorded test call requested for c1ccc(C2NCCNC2c2ccccc2)cc1 (stereo not drawn)
inactive

Recorded test call requested for CC(C)(C#N)c1cc(F)cc(C(=O)Nc2cc(Nc3ncccc3-c3ncnc4nc[nH]c34)ccc2F)c1
inactive

Recorded test call requested for Cc1cc(-c2noc(C(F)(F)F)n2)ccc1N1CCN(c2cc(C(=O)N(C)C)no2)CC1
inactive

Recorded test call requested for CCCCCCCCCCCCCCCCCCNC(=O)[C@H]1CSC(c2ccc(F)c(OC)c2)N1 (stereo partly drawn)
inactive

Recorded test call requested for CC1=CC(C)=Nc2ccc(Cl)cc2N1
inactive

Recorded test call requested for CC[C@H]1[C@@H]2C=C[C@@H]3[C@H]4C/C=C\C(=O)NCCC[C@@H]5NC(=O)/C(=C(O)/C=C/[C@@H]4C[C@@H]3[C@H]2C[C@H]1C)C5=O
inactive

Recorded test call requested for CCCCN1C=CCN(CCCC)C1
active

Recorded test call requested for C=CC[N+]1(CC)CCN=C1CCCCCCCCCCCCCCCCC (stereo not drawn)
active

Recorded test call requested for Cn1c(=O)c2c(nc(Br)n2CCC(=O)Nc2ccc(F)cc2)n(C)c1=O
inactive

Recorded test call requested for Nc1cc(N)c2cccnc2c1O
inactive

Recorded test call requested for Cc1ccc2c(c1)nc(C)n2-c1ncnc2c1CC(C)c1cc(O)ccc1N2C (stereo not drawn)
inactive

Recorded test call requested for Cc1nc2n(c(=O)c1CCN1CCC(c3noc4cc(F)ccc34)CC1)CCC[C@@H]2O
inactive

Recorded test call requested for N#Cc1c(-c2ccccc2)nc(SCc2nnc(-c3ccc(Cl)cc3)o2)[nH]c1=O
inactive

Recorded test call requested for C#CCOc1ccccc1C(OC(=O)c1ccccc1)C(=O)NC(C)(C)C(C)(C)C (stereo not drawn)
inactive

Recorded test call requested for Clc1nc(Nc2ccccc2)nc(Nc2ccccc2)n1
inactive

Recorded test call requested for COc1cc(/C=C2\C(=O)N(c3c(Cl)cccc3Cl)c3ccccc32)cc(OC)c1O
inactive

Recorded test call requested for CCOC(=O)C1CN(Cc2ccccc2)C(=O)C1=O (stereo not drawn)
inactive

Recorded test call requested for CCC(C)(O)Cc1ccc(Cl)cc1 (stereo not drawn)
inactive

Recorded test call requested for FC(F)(F)c1ccc(-c2cnc(-c3nn[nH]n3)nc2NC2CCCCCC2)cc1
inactive

Recorded test call requested for CC(=O)/C(=C/c1cccc(Cl)c1)C(=O)c1ccccc1
inactive

Recorded test call requested for O=C(/C=C/c1cccnc1)/C=C/c1cccnc1
active

Recorded test call requested for COc1cc2c(c(OC)c1OC)-c1ccc(N=NC(N)=S)c(=O)cc1[C@@H](NC(C)=O)CC2
active

Recorded test call requested for COc1ccc(-c2cc(-c3ccc(Cl)cc3)nc(SCCCC(=O)NO)n2)cc1OC
active

Recorded test call requested for COc1ccc2c(c1)O/C(=C\c1ccc([N+](=O)[O-])s1)C2=O
active

Recorded test call requested for O=C1CC(SC(=S)C2CCCC2=O)C(=O)N1 (stereo not drawn)
inactive

Recorded test call requested for NC(=O)NC1(C(=O)O)CCCC1
inactive

Recorded test call requested for COc1ccc(NC(=O)CSc2nnc(-c3cc(-c4ccc(S(N)(=O)=O)cc4)nc4ccccc34)n2-c2ccccc2)cc1
inactive

Recorded test call requested for Nc1nc(N)c2c(n1)NC(c1ccc(F)cc1)C1CCc3ccccc3C1=N2 (stereo not drawn)
active

Recorded test call requested for O=S(=O)(NCCNc1cc(-c2cn(-c3ccccc3)nc2-c2cccc(O)c2)ccn1)c1ccccc1
inactive

Recorded test call requested for CCOC(C)=N
inactive

Recorded test call requested for CC(C)(C)CC(C)(C)c1ccc(OCCOCCSC(=N)N)cc1
active

Recorded test call requested for COc1cc(-c2nc3ccccc3[nH]2)ccc1OCc1nnc(-c2ccc(Br)cc2)o1
inactive

Recorded test call requested for Cn1cc(-c2nnc(N)nc2-c2c[nH]c3ccccc23)c2cc(Br)cnc21
active

Recorded test call requested for Cc1ccc(-c2nc3nc(-c4ccccc4)nc(N4CCCN(S(C)(=O)=O)CC4)c3o2)cc1
inactive

---

tested on: CCRF-CEM leukemia; assay: NCI-60 one-dose screen, 48 h (100 = growth as untreated, 0 = no growth, -100 = all killed); details: 10 µM
This is part of a sample that, as a whole, favours compounds with a hit. Of some 83,000 tested, about 20% had one in any assay.
Consider the following partition of reported growth into named classes: bucket A (below 10%), bucket B (10% to below 80%), bucket C (80% or more)

Would you mind sorting CC(C)(C)c1cc(/C=C2\S/C(=N/c3ncn[nH]3)NC2=O)cc(C(C)(C)C)c1O into the appropriate category?
bucket B

Would you mind sorting COc1ccccc1-n1cc(C#N)c(N)c1C(=O)c1ccc(Cl)cc1Cl into the appropriate category?
bucket A

Would you mind sorting O=C(CC(=O)Nc1ccc(Oc2ncnc3scc(Nc4n[nH]c(=S)s4)c23)cc1)Nc1ccc(Cl)cc1 into the appropriate category?
bucket B

Would you mind sorting COc1ccc(Cc2nn(CC(=O)N/N=C/c3ccc([N+](=O)[O-])cc3)c(=O)c3c(C)noc23)cc1 into the appropriate category?
bucket B

Would you mind sorting O=C1S/C(=C\c2ccc([N+](=O)[O-])cc2)C(=O)N1CCN1CCCCC1 into the appropriate category?
bucket C

Would you mind sorting COc1cc(-c2nc3ccc(C)cc3[nH]2)ccc1OCc1nnc(-c2ccccc2Br)o1 into the appropriate category?
bucket B

Would you mind sorting O=C(c1ccc(F)cc1)C(c1c[nH]c2ccccc12)c1c[nH]c2ccccc12 into the appropriate category?
bucket A

Would you mind sorting Cc1ccc(S(=O)(=O)N2CCN(S(=O)(=O)c3oc(-c4ccccc4)nc3C#N)CC2)cc1 into the appropriate category?
bucket B

Would you mind sorting Cc1ccc2c(c1)C(=O)/C(=C/c1ccc([N+](=O)[O-])cc1)S2 into the appropriate category?
bucket C

---

Provide the recorded growth for the entries that follow.
test system: MDA-MB-468 breast; experiment: NCI-60 one-dose screen, 48 h (100 = growth as untreated, 0 = no growth, -100 = all killed); settings: 10 µM unless noted
About 83,000 compounds went through this panel and 20% of them were active in at least one assay; those are over-represented in the sample as a whole.
Write it as a number; the unit % goes unstated.

Name the recorded growth for O=C1Nc2ccccc2C12CC(c1ccc(Cl)cc1)=NN2 (centres undefined) .
110

Name the recorded growth for Cc1cn2c(/C=C3/C(=O)Nc4c3ccc3ccccc43)c(C(F)(F)F)nc2s1 .
7.93

Name the recorded growth for COc1cc([C@@H](CCO)C[C@H](C)c2ccc3ccccc3c2)cc(OC)c1OC .
17.2

Name the recorded growth for COc1ccc(S(=O)(=O)NCCCNc2cc(-c3c(-c4cccc(OC)c4)nc4sccn34)ccn2)cc1 .
11.3

Name the recorded growth for N#Cc1c(-c2ccccc2)nc(SCC(O)CN2CCOCC2)nc1N1CCOCC1 (centres undefined) .
76.7

Name the recorded growth for O=C(CCCCC(=O)N/N=C\c1ccccc1O)N/N=C\c1ccccc1O .
22.4

Name the recorded growth for C#CCNc1nc(NCCNC(=O)CCl)nc(N(C)CCCCc2ccccc2)n1 .
86

Name the recorded growth for COc1ccc2cc(-c3ccc(-c4ccc(C(=N)N)s4)s3)ccc2c1 .
-51.7

Name the recorded growth for COc1ccc(Cn2cc(C(=O)N=Nc3c(O)[nH]c4c(C)cccc34)nn2)cc1 .
89.2

Name the recorded growth for Cc1ncc(C(=O)Nc2ccc(CN3CCN(C)CC3)c(C(F)(F)F)c2)cc1C#Cc1c(N)ncc2ccc(F)cc12 .
48.2

Name the recorded growth for C=C(C)[C@@H]1CC[C@]2(COCCCNCCCN)CC[C@]3(C)[C@H](CC[C@@H]4[C@@]5(C)CC[C@H](OCCCN)C(C)(C)[C@@H]5CC[C@]43C)[C@@H]12 .
-67.8

Name the recorded growth for COc1ccc(C(=O)c2c(N)c(C#N)cn2-c2cccc(OC)c2)cc1 .
-3.17

Name the recorded growth for c1ccc2[nH]c(-c3ccc(Nc4nc(N5CCCCC5)nc(N5CCOCC5)n4)cc3)nc2c1 .
-3.66

Name the recorded growth for COc1ccc(-n2c(-c3ccc(NC(=O)CCCl)cc3)nnc2-c2cc(OC)c(OC)c(OC)c2)cc1 .
-11.1

Name the recorded growth for C=C(c1ccc(OC)c(/C=C/C(=O)c2cc(OC)c(OC)c(OC)c2)c1)c1cc(OC)c(OC)c(OC)c1 .
-8.58

Name the recorded growth for CN(C)C/C=C/C(=O)Nc1cc2c(Nc3ccc(F)c(Cl)c3)ncnc2cc1O[C@H]1CCOC1 .
-40.5

Name the recorded growth for COc1nc(OC)nc(-c2cc(C(=O)c3ccc(Br)cc3)n3cc(C)cc(C)c23)n1 .
51

Name the recorded growth for O=S(=O)(NCCNc1cc(-c2cn(-c3ccccc3)nc2-c2ccccc2)ccn1)c1ccc(F)cc1 .
58

Name the recorded growth for COc1ccc2c(Cl)cc(NC(=O)Nc3c(C)cccc3C)nc2c1 .
79.2
